# procedure-text: qHTS of pediatric cancer cell lines to identify multiple opportunities for drug repurposing: Confirmatory screen for Rh41 cells (AID 1347123);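 also: 48 h compound exposure; nearly all actives have a fitted effect of over 60% in size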
# measurement-parameters: Rh41 rhabdomyosarcoma cells, viability/cytotoxicity qHTS; series mostly up to 45.9 µM
Results filed as inconclusive are left out. Calls of active or inactive are those of the source. Calls follow the shape of the dose curve; as a rule, active = well fitted cell-killing curve with a large enough effect; inconclusive = small, poorly fitted or top-dose-only effect; inactive = no such curve, though single readings can be large or run the other way.
The reply should be one of these categories: active, inactive

(Q) # lookup: test call for CO[C@H]1CCC(O[C@H]2C[C@H]([C@]3(C)CC[C@]4(C[C@H](O)[C@@H](C)[C@@H]([C@@H](C)C=C(C)C(=O)[C@H](C)C[C@H](C)C(=O)O)O4)O3)O[C@]3(O[C@@H]([C@H]4O[C@@](O)(CO)[C@H](C)C[C@H]4C)C[C@H]3C)[C@H]2C)O[C@H]1C (some centres not stated)
(A) active
